Values were extracted from PubChem BioAssay (NCI).

- Tested on: NCI-H23 lung
- procedure_details: NCI tumour cell line growth inhibition, 48 h
endpoint_name: log10(TGI) (log10 of the value in µM)
Lab note - TGI converted to log10 from values in µM.

Report measured log10(TGI); entry is `CN1CCN(Cc2c[nH]c3c2C(=O)c2c(c(O)c4ccccc4c2O)C3=O)CC1`
1.43

Report measured log10(TGI); entry is C[C@@H]1[C@@H](C)C(c2ccccc2)O[Si]1(C(C)(C)C)C(C)(C)C (some centres undefined)
1.48

Report measured log10(TGI); entry is C#CC1(O)CCC2C3CCc4cc(Oc5nc(F)nc(-c6c7ccccc7c7n6CCS7)n5)ccc4C3CC[C@@]21C (some centres undefined)
1.63

Report measured log10(TGI); entry is `COc1cc(/C=C/c2ccc(C)cc2)cc(OC)c1OC`
0.96

Report measured log10(TGI); entry is `CCC(=O)N1C/C(=C/c2ccc(Cl)cc2)C(=O)/C(=C/c2ccc(Cl)cc2)C1`
0.57

---

- Test system: UACC-257 melanoma
- procedure_details: NCI tumour cell line growth inhibition, 48 h
I'd appreciate it if you could supply log10 of TGI values for the items below.
Lab note - TGI converted to log10 from values in µM.

Report measured log10 of TGI; entry is `CN1/C(=C/C=C/C=C/C=C2C(=O)c3ccccc3C2=O)C(C)(C)c2ccccc21`
1.73

Report measured log10 of TGI; entry is `CCCCNNC(=O)c1ccc(Br)cc1`
0.87

Report measured log10 of TGI; entry is Oc1c(C(Nc2ccccc2Br)c2ccccc2)ccc2cccnc12 (stereo not given)
0.93

Report measured log10 of TGI; entry is `NNC(=O)Nc1nc2ccc(NN)cc2[nH]1`
1.94

Report measured log10 of TGI; entry is CC(=O)n1cc(C2CC23N=C(c2ccccc2)OC3=O)c2ccccc21 (stereo not given)
1.52

---

- Test system: HCT-15 colon
- procedure_details: NCI tumour cell line growth inhibition, 48 h; in the data active = GI50 below about 0.43 µM; inactive = the rest
// classify into class 1 for active, class 0 for inactive

Tell me the assay call for `CO/N=C(\COc1ccc2c(=O)c3ccccc3oc2c1)c1ccccc1` please.
class 0

Tell me the assay call for `OCCCCC#Cc1ccccc1C#Cc1ccc(O)cc1` please.
class 0

Tell me the assay call for `Cc1ccc(/C=C/c2c(C(=O)/C=C/c3ccccc3)c(C)nc3ccccc23)cc1` please.
class 0

Tell me the assay call for `COC(=O)c1cc(-c2ccccc2)[nH]c1N/N=C/c1c(Cl)cccc1Cl` please.
class 1

Tell me the assay call for `C=CC(=O)N1CCC(c2ccc(C(N)=O)c(-c3ccc(Oc4ccccc4)cc3)n2)CC1` please.
class 0

Tell me the assay call for `COc1ccccc1/C=C1\COc2ccc(-c3ccccc3)cc2C1=O` please.
class 0

Tell me the assay call for `COc1c(C(C)=O)c(OCCCCOc2c(C(C)=O)c(OC)c3ccoc3c2OC)c(OC)c2occc12` please.
class 0

Tell me the assay call for CCC1(O)CC(OC2CC(N(C)C)C(OC3CC(O)C(OC4OC(C)C(=O)C=C4N)C(C)O3)C(C)O2)c2c(cc3c(c2O)C(=O)c2c(O)cccc2C3=O)C1C(=O)OC (centres undefined) please.
class 0

Tell me the assay call for `CCOc1ccc2c(-c3ccnc(Nc4cc(OC)cc(C(F)(F)F)c4)n3)cnn2n1` please.
class 0

Tell me the assay call for `Cc1ccc2nc3ccccc3c(NCc3ccc(Cl)cc3)c2c1` please.
class 0

Tell me the assay call for `COc1ccc([C@H](CC(=O)O)N2CCN(CCCc3ccc4c(n3)NCCC4)C2=O)cn1` please.
class 1

Tell me the assay call for CC1=CC2C(C(O)CC3(C)C2CC(C)C32OCOC23COCO3)C2(C)C/C(=C/O)C(=O)C=C12 (centres undefined) please.
class 0

Tell me the assay call for COC(C)(C)[C@@H](O)[C@H](O)C[C@H](C)C1=C2CC[C@@H]3[C@@]4(C)CC[C@@H](OC(C)=O)C(C)(C)[C@@H]4C[C@@H](OC4OC(COC(C)=O)C(O)C(O)C4O)[C@@]3(C)[C@]2(C)CC1 (some centres undefined) please.
class 0

Tell me the assay call for `O=c1c2cc(C(F)(F)F)ccc2sc2c(NCCCNCCO)nc3ccccc3c12` please.
class 0

---

- Tested on: SNB-75 CNS
- procedure_details: NCI tumour cell line growth inhibition, 48 h
*1 amine or outer side, *2 acyl side, *3 side chain or, on linkers, in order; H or OH if unused. Where a SMILES comes first, the peptide text is derived from it. Bridges are numbered along the chain shown (N, C = ends). Roman numbers before positions name the chains, in order. [ ]: non-standard residue; d: D form. Actinocin(9to1) = Cc1c2oc3c(C)ccc(C(=O)[*:1])c3nc-2c(C(=O)[*:2])c(N)c1=O; NMeH = CN[CH](Cc1c[nH]cn1)C(=O)O; Sar = CNCC(=O)O
endpoint_name: TGI

Report measured TGI; entry is COC(C)(C)[C@@H](O)[C@H](O)C[C@H](C)C1=C2CC[C@@H]3[C@@]4(C)CC[C@@H](OC(C)=O)C(C)(C)[C@@H]4C[C@@H](OC4OC(COC(C)=O)C(O)C(O)C4O)[C@@]3(C)[C@]2(C)CC1 (stereo partly drawn)
21.2 µM

Report measured TGI; entry is Fc1cccc(F)c1C1SCc2nc3cc(Cl)c(Cl)cc3n21 (stereo not drawn)
> 100 µM

Report measured TGI; entry is O=C(O)C(Cc1cnc[nH]1)N1C(=O)c2ccccc2C1=O (stereo not drawn)
> 100 µM

Report measured TGI; entry is `C[N+]1=c2c3cccc4cccc(c(=O)n2CC1)c43`
45 µM

Report measured TGI; entry is Cc1c2oc3c(C)ccc(C(=O)NC4C(=O)NC(C(C)C)C(=O)N5CCCC5C(=O)N(C)CC(=O)N(C)C(Cc5cnc[nH]5)C(=O)OC4C)c3nc-2c(C(=O)NC2C(=O)NC(C(C)C)C(=O)N3CCCC3C(=O)N(C)CC(=O)N(C)C(Cc3cnc[nH]3)C(=O)OC2C)c(N)c1=O (stereo not drawn) (I: TVP[Sar][NMeH] / II: TVP[Sar][NMeH]; ester I:1-I:C, II:1-II:C; linker I:N-II:N via Actinocin(9to1); configuration not given here)
> 100 µM

Report measured TGI; entry is `Nc1ccc(-c2nc3ccccc3s2)cc1Cl`
> 93.5 µM

Report measured TGI; entry is Nc1cc2c(c3ccccc13)C(CCl)CN2C(=O)c1cc2cc(NC(=O)Nc3ccc4[nH]c(C(=O)N5CC(CCl)c6c5cc(N)c5ccccc65)cc4c3)ccc2[nH]1 (stereo not drawn)
0.73 µM

Report measured TGI; entry is [N-]=[N+]=NC(c1cn(C2CC(O)C(CO)O2)c(=O)[nH]c1=O)C(Cl)Br (stereo not drawn)
> 100 µM

---

I'd appreciate it if you could supply log10 TGI values for the items below.
- System: MDA-MB-231 breast
- procedure_details: NCI tumour cell line growth inhibition, 48 h
Lab note - TGI converted to log10 from values in µM.

Report measured log10 TGI; entry is `CC[C@@]1(O)C(=O)OCc2c1cc1n(c2=O)Cc2c-1nc1ccc(O)cc1c2[Si](C)(C)C(C)(C)C`
1.31

Report measured log10 TGI; entry is `C#CC(O)(c1nc2ccccc2s1)c1nc2ccccc2s1`
1.60

Report measured log10 TGI; entry is CC(C)(C)C1CCC2c3c([nH]c4ccccc34)C3C(=O)N(c4ccc(C#N)cc4)C(=O)C3C2C1 (stereo unspecified)
1.55

Report measured log10 TGI; entry is `COC(=O)c1cc(-c2ccccc2)[nH]c1N/N=C/c1c(Cl)cccc1Cl`
0.84

Report measured log10 TGI; entry is `O=C(Nc1sccc1S(=O)(=O)c1ccc(Cl)cc1)c1ccc(F)cc1F`
1.73

Report measured log10 TGI; entry is `CC(C)(C)OC(=O)N/C(C=O)=C\C1CCCCC1`
1.65

Report measured log10 TGI; entry is `CCC(=O)N1C/C(=C/c2ccc(Cl)cc2)C(=O)/C(=C/c2ccc(Cl)cc2)C1`
0.46

Report measured log10 TGI; entry is `O=c1[nH]nc(-c2ccccc2)n1/N=C/c1ccc([N+](=O)[O-])o1`
1.29

Report measured log10 TGI; entry is `CCCCCCCCCCCC1=NC(C)(C)CN1C(C)(C)CO`
0.65

---

I'd appreciate it if you could supply TGI values for the items below.
- Test system: SK-MEL-28 melanoma
- procedure_details: NCI tumour cell line growth inhibition, 48 h
*1 amine or outer side, *2 acyl side, *3 side chain or, on linkers, in order; H or OH if unused. Where a SMILES comes first, the peptide text is derived from it. Bridges are numbered along the chain shown (N, C = ends). Roman numbers before positions name the chains, in order. [ ]: non-standard residue; d: D form. Actinocin(9to1) = Cc1c2oc3c(C)ccc(C(=O)[*:1])c3nc-2c(C(=O)[*:2])c(N)c1=O; NMeH = CN[CH](Cc1c[nH]cn1)C(=O)O; Sar = CNCC(=O)O

Report measured TGI; entry is `COc1ccccc1-n1c(=O)n(C)c(=O)n1C(C)(C)C`
> 100 µM

Report measured TGI; entry is `c1nc(NCCc2cnc[nH]2)c2[nH]cnc2n1`
> 100 µM

Report measured TGI; entry is COc1ccc(C2C3=C(N=C4SC(C(C)=O)=C(C)N42)c2ccccc2CC3)cc1 (configuration not stated)
> 100 µM

Report measured TGI; entry is `Cn1cccc1-c1ccc(-c2ccc(CO)[se]2)[se]1`
> 100 µM

Report measured TGI; entry is Cc1ccc(S(=O)(=O)N/N=C(\c2nc3ccc(Cl)cc3[nH]c2=O)C(O)c2ccco2)cc1 (configuration not stated)
> 100 µM

Report measured TGI; entry is `CC[C@@]1(O)C(=O)OCc2c1cc1n(c2=O)Cc2c-1nc1ccc(O)cc1c2[Si](C)(C)C(C)(C)C`
10.7 µM

Report measured TGI; entry is COC(=O)C1CC2(C)C=CC1N(C(=O)OCc1ccccc1)C2 (configuration not stated)
> 100 µM

Report measured TGI; entry is `CCOc1ccc2c(-c3ccnc(Nc4cc(OC)cc(C(F)(F)F)c4)n3)cnn2n1`
> 25 µM

Report measured TGI; entry is `OCCCCC#Cc1ccccc1C#Cc1ccc(O)cc1`
27.8 µM

Report measured TGI; entry is `Cc1cc(N(CCC#N)S(=O)(=O)c2ccccc2)ccc1/C=C1\N=C(c2ccc(Cl)cc2)OC1=O`
> 100 µM

Report measured TGI; entry is Cc1cc(C)c2c(c1)CC1(Cc3cc(C)c(C)cc3C1=O)C2=O (configuration not stated)
> 100 µM

Report measured TGI; entry is `C#C[C@]1(O)CC[C@H]2[C@@H]3CC=C4c5sc(Nc6cc(F)ccc6F)nc5CC[C@]4(C)[C@H]3CC[C@@]21C`
2.34 µM

Report measured TGI; entry is `C=CO/N=[N+](\[O-])N(CC)CC`
> 100 µM

Report measured TGI; entry is CCCCC(SC(=S)N1CCCC1)C(=O)Nc1nc(CC(=O)OCC)cs1 (configuration not stated)
> 100 µM

Report measured TGI; entry is Cc1c2oc3c(C)ccc(C(=O)NC4C(=O)NC(C(C)C)C(=O)N5CCCC5C(=O)N(C)CC(=O)N(C)C(Cc5cnc[nH]5)C(=O)OC4C)c3nc-2c(C(=O)NC2C(=O)NC(C(C)C)C(=O)N3CCCC3C(=O)N(C)CC(=O)N(C)C(Cc3cnc[nH]3)C(=O)OC2C)c(N)c1=O (configuration not stated) (I: TVP[Sar][NMeH] / II: TVP[Sar][NMeH]; ester I:1-I:C, II:1-II:C; linker I:N-II:N via Actinocin(9to1); configuration not given here)
> 100 µM

Report measured TGI; entry is `CC(C)(C)OC(=O)N/C(C=O)=C\C1CCCCC1`
> 100 µM

Report measured TGI; entry is `[2H]C([2H])([2H])NC(=O)c1nnc(NC(=O)C2CC2)cc1Nc1cccc(-c2ncn(C)n2)c1OC`
> 100 µM
